Entries and their measured IC50 follow.
- System: human RORγ hybrids of both isoforms 1 and 2 (RORγt) (Homo sapiens)
- Sequence (P51449 259-518): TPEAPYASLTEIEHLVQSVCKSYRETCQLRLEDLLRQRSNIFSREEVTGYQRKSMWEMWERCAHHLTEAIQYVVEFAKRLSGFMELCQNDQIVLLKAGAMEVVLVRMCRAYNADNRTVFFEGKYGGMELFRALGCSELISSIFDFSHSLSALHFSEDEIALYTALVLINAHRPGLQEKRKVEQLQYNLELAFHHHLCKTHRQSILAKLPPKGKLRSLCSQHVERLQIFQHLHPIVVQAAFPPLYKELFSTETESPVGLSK
- Procedure Text: Human RAR-related Orphan Receptor Gamma Reporter Assay System (Indigo Biosciences)
- Assay type: cell-based
- Setup Conditions: RORγ reporter assay, concentrations 10 µM to 8 nM; read-out: IC50
Supply the numeric figure in µM, leaving out any unit text.

### Prompt Query: IC50; subject: COc1ccc(Cn2c(-c3ccc(S(=O)(=O)N4CCOCC4)cc3)cs/c2=N\c2ccccc2OC)cc1 [Compound 21]
### Response 10.7

### Prompt I have this molecule here, O=C(O)c1ccc(CN2C(=O)/C(=C/c3cn(Cc4ccc([N+](=O)[O-])cc4)c4ccccc34)S/C2=N/c2ccccc2)cc1 [Compound 15] , and I need its recorded IC50.
### Response 7.3

### Prompt Can you look up the measured IC50 of COc1ccc(-c2cc(C(F)(F)F)n3ncc(C(=O)N4CCN(C(c5ccccc5)c5ccccc5)CC4)c3n2)cc1 [Compound 10] for me?
### Response 9.7

### Prompt # input molecule: COc1ccc(C2CC(=O)C3=C(C2)NC(C)=C(C(=O)OC2CCCCC2)C3c2cccc(O)c2)cc1OC (stereo not shown) [Compound 14] ; wanted: its IC50
### Response 2.3
